Test system: Saccharomyces cerevisiae
protocol: protein stability index of tFT-peptide fusion (C-terminal peptide) (PSI (0-1 scale)); higher = more stable (slower turnover)
details: genetic background: das1 deletion; temperature: 30 C
Classification field: enter YES for protein stability index values not below 0.7, NO for values below it.

| query.sequence | measured.target | class.name |
| --- | --- | --- |
| YLLGIYRDNKKC [ALG5 C-terminal 12 aa] | Saccharomyces cerevisiae | YES |
| SNYNNRTTDMPL [PSP2 C-terminal 12 aa] | Saccharomyces cerevisiae | NO |
| WEHLHSGFSKNK [ELG1 C-terminal 12 aa] | Saccharomyces cerevisiae | YES |
| VRKGQEKSKKHS [SEI1 C-terminal 12 aa] | Saccharomyces cerevisiae | NO |
| FLFSCMLYKIDP [YML089C C-terminal 12 aa] | Saccharomyces cerevisiae | NO |
| FCKEKVYSKLLV [YNL103W-A C-terminal 12 aa] | Saccharomyces cerevisiae | NO |
| LRWKKRNGIASK [NOP16 C-terminal 12 aa] | Saccharomyces cerevisiae | NO |
| VGFCGLYYYFRK [YPR195C C-terminal 12 aa] | Saccharomyces cerevisiae | NO |
| KAMILTSYRYLE [CLP1 C-terminal 12 aa] | Saccharomyces cerevisiae | NO |
| GVEKYWGILSNE [SCW4 C-terminal 12 aa] | Saccharomyces cerevisiae | YES |
| IVTKMDLLSYLA [CYS4 C-terminal 12 aa] | Saccharomyces cerevisiae | NO |
| YGCIALTVVFIL [YAR069C C-terminal 12 aa] | Saccharomyces cerevisiae | NO |
| ALCICCTMDMLF [YBR016W C-terminal 12 aa] | Saccharomyces cerevisiae | NO |
| FRHNRSNKKLGC [GEX1 C-terminal 12 aa] | Saccharomyces cerevisiae | YES |
| EIKEMLVTLINK [SRL2 C-terminal 12 aa] | Saccharomyces cerevisiae | NO |
| PILSQEVDRWRL [GAC1 C-terminal 12 aa] | Saccharomyces cerevisiae | YES |
| QSVAILDGKLVW [YGL258W-A C-terminal 12 aa] | Saccharomyces cerevisiae | NO |
| KDINLSEGNENE [URA8 C-terminal 12 aa] | Saccharomyces cerevisiae | NO |
| FEVMKFVNGLKV [RFX1 C-terminal 12 aa] | Saccharomyces cerevisiae | NO |
| RRSKKWYSFIFN [SCO2 C-terminal 12 aa] | Saccharomyces cerevisiae | YES |
| NIIIIILYVYIH [MOR1 C-terminal 12 aa] | Saccharomyces cerevisiae | NO |
| IEEAASSLGFKR [PES4 C-terminal 12 aa] | Saccharomyces cerevisiae | YES |

###

Recorded protein stability index for the following sequences
System: Saccharomyces cerevisiae
protocol: protein stability index of tFT-peptide fusion (C-terminal peptide) (PSI (0-1 scale)); higher = more stable (slower turnover)
details: genetic background: wild type; temperature: 30 C

| query.sequence | measured.target | protein stability index |
| --- | --- | --- |
| MDHSGYWDISCG | Saccharomyces cerevisiae | 0.801 |
| EVVFVARSGSGV | Saccharomyces cerevisiae | 0.654 |
| PSPVRSSYASTL | Saccharomyces cerevisiae | 0.711 |
| KNGNVEILIKCT | Saccharomyces cerevisiae | 0.488 |
| PPPTLPPPSPFP | Saccharomyces cerevisiae | 0.705 |
| YVLLSRVSVFSA | Saccharomyces cerevisiae | 0.421 |
| GLVRGGWGTVGG | Saccharomyces cerevisiae | 0.805 |
| SISANPGAPHFP | Saccharomyces cerevisiae | 0.666 |
| VEEYKKRNNKEG | Saccharomyces cerevisiae | 0.64 |
| PPLTSSVCFSLI | Saccharomyces cerevisiae | 0.665 |
| SSPPSPPPLTLY | Saccharomyces cerevisiae | 0.687 |
| PTSFAPSPPLPR | Saccharomyces cerevisiae | 0.741 |
| IPPSSLSSPLPP | Saccharomyces cerevisiae | 0.704 |
| STSYLKLKYSIY | Saccharomyces cerevisiae | 0.498 |
| KMIDNKQKSVAV | Saccharomyces cerevisiae | 0.675 |
| IMKKKKNKARDI | Saccharomyces cerevisiae | 0.75 |
| LVPYLWWLVFAL | Saccharomyces cerevisiae | 0.274 |
| VSMPIVPWPLLQ | Saccharomyces cerevisiae | 0.54 |
| FFRDDNRDHKRT | Saccharomyces cerevisiae | 0.689 |
| VSRITSRFEKKM | Saccharomyces cerevisiae | 0.592 |
| MIGWQADSINKI | Saccharomyces cerevisiae | 0.783 |
| WCVCGVWVGLWG | Saccharomyces cerevisiae | 0.71 |
| LTDITGSIRNVH | Saccharomyces cerevisiae | 0.673 |
| FLTLQSPIQYIV | Saccharomyces cerevisiae | 0.171 |
| ERYKHKKMKNNE | Saccharomyces cerevisiae | 0.699 |
| FCLDLLVGLVFL | Saccharomyces cerevisiae | 0.546 |
| PSPALLILPPYS | Saccharomyces cerevisiae | 0.672 |
| LATGLVIETLWE | Saccharomyces cerevisiae | 0.753 |
| LPTVVTAVHQGL | Saccharomyces cerevisiae | 0.671 |
| PPRPPPSPPLPP | Saccharomyces cerevisiae | 0.696 |
| RGRGSLPGFKSL | Saccharomyces cerevisiae | 0.654 |
| AFALFVGKVLRC | Saccharomyces cerevisiae | 0.566 |
| FELVEAAYISEE | Saccharomyces cerevisiae | 0.626 |
| VWGLGWLVVGVG | Saccharomyces cerevisiae | 0.221 |
| LGSFGLASVDGL | Saccharomyces cerevisiae | 0.713 |
| PGSPPPPDTLSP | Saccharomyces cerevisiae | 0.701 |
| KKKKIEEKKDCK | Saccharomyces cerevisiae | 0.715 |
| VALSSECVLSGV | Saccharomyces cerevisiae | 0.656 |
| WGWGGGRGGMGG | Saccharomyces cerevisiae | 0.716 |
| SMSPHKCSVCFC | Saccharomyces cerevisiae | 0.644 |
| RRMHLNMKEREL | Saccharomyces cerevisiae | 0.896 |

###

Tested on: Saccharomyces cerevisiae
protocol: protein stability index of tFT-peptide fusion (C-terminal peptide) (PSI (0-1 scale)); higher = more stable (slower turnover)
details: genetic background: wild type; temperature: 37 C
quantity.kind: protein stability index

| query.sequence | quantity.kind | experimental.result |
| --- | --- | --- |
| LFLYDFIALRCS | protein stability index | 0.413 |
| LPSRWVPLPTPA | protein stability index | 0.562 |
| SFFVCVRVFGCC | protein stability index | 0.398 |
| LCARVCITFNIV | protein stability index | 0.481 |
| YLDRFIFIYNIF | protein stability index | 0.367 |
| SSGAVGLVIVVC | protein stability index | 0.247 |
| FGLVAYPLWYIS | protein stability index | 0.105 |
| VGFCICISIMSF | protein stability index | 0.209 |
| CSRDVFLFIKFL | protein stability index | 0.127 |
| KIRGYLMPLTLL | protein stability index | 0.548 |

###

Test system: Saccharomyces cerevisiae
protocol: protein stability index of tFT-peptide fusion (C-terminal peptide) (PSI (0-1 scale)); higher = more stable (slower turnover)
details: genetic background: das1 deletion; temperature: 30 C
Classification field: enter satisfied for protein stability index values not below 0.4, not satisfied for values below it.

| query.sequence | class.name |
| --- | --- |
| CRLLVFGLCVGA | not satisfied |
| ATAVMILCFRWC | not satisfied |
| GVWLRAVRGFGV | satisfied |
| TFVLREYVWVMS | not satisfied |
| GPTLLVSRIAVI | not satisfied |
| SCFCFRVLLCSF | not satisfied |
| VFFLAFYFYRCF | satisfied |
| GLRLRCPLLLSL | not satisfied |
| VFWLLVGLGCFS | satisfied |
| VYCLFLPLGVAF | not satisfied |

###

Recorded protein stability index for the following sequences
Test system: Saccharomyces cerevisiae
protocol: protein stability index of tFT-peptide fusion (C-terminal peptide) (PSI (0-1 scale)); higher = more stable (slower turnover)
details: genetic background: wild type; temperature: 30 C
quantity.kind: protein stability index

| query.sequence | experimental.result |
| --- | --- |
| PVRLGAGGGCRP | 0.693 |
| LLVVGPVRLVVH | 0.262 |
| PASPPLRALSSL | 0.81 |
| RRERQNEKMTYH | 0.656 |
| PSRPRPRRRRQA | 0.751 |
| NGGGMPDRVVSI | 0.722 |
| GGGGGGGCGGDR | 0.654 |
| PPTPPPNPPSRY | 0.715 |
| LSPALPPPMSAA | 0.577 |
| VCVVGGSILRAV | 0.711 |
| RCLRALGLFARS | 0.719 |
| GTHFRPAREERV | 0.708 |
| LRPLSFPTHTLL | 0.685 |
| QQCVTGKSFYGI | 0.856 |
| LPPPPPASPPSP | 0.703 |
| LRYSPLLFLSVV | 0.513 |
| VGWQGRWWVWGG | 0.568 |
| TFVLREYVWVMS | 0.304 |
| CSDRCHNLLLDA | 0.705 |

Reference source: the supplement of paper PMC10724198
